molecular target: Nonstructural protein 3 (Zika virus) (UniProt A0A024AXB9); conditions: PRVABC59, Concentration 50.0 uM, Number of replicates 1.0
Sequence (A0A024AXB9 as listed by the source): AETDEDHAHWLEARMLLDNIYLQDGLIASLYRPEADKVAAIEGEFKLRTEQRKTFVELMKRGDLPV
Description: Functional biochemical assay to identify treatments for viral infectious disease that targets Zika NS2B-NS3 protease. Utilizing a direct enzyme activity measurement method, reading the fluorescence intensity is used to characterize the relative potency of inhibitors as % inhibition.
The campaign covered roughly 2,700 compounds. About 160 (5.9%) showed an effect of 50% or more. The sample as a whole holds a higher share of strong results than the screen did.
Measured inhibition, listed per entry.
Report the figure in % without appending any unit label.

>>> recorded_value("O=Cc1ccc(N2CCC(C(=O)NCCN3CCc4ccccc43)CC2)cc1")
67.9
>>> recorded_value("O=Cc1ccc(N2CCC(C(=O)NCCC3CCN(Cc4ccccc4)CC3)CC2)cc1")
36.7
>>> recorded_value("N#CC1(c2ccccc2)CCN(C(=O)C2CCN(c3ccc(C=O)cc3)CC2)CC1")
12.6
>>> recorded_value("O=Cc1ccc(N2CCC(C(=O)NCCc3ccc(O)c(O)c3)CC2)cc1")
48.5

Now, please, on to the next compound.
Query: Fill: inhibition (Nonstructural protein 3 (Zika virus) (UniProt A0A024AXB9)) for this compound CCN1CCN(c2ccc(NC(=O)C3CCN(c4ccc(C=O)cc4)CC3)cc2)CC1
Result: 54.8
